Biological target: TDP-43 (Homo sapiens, UniProt Q13148 1-414)
Sequence (Q13148 whole entry): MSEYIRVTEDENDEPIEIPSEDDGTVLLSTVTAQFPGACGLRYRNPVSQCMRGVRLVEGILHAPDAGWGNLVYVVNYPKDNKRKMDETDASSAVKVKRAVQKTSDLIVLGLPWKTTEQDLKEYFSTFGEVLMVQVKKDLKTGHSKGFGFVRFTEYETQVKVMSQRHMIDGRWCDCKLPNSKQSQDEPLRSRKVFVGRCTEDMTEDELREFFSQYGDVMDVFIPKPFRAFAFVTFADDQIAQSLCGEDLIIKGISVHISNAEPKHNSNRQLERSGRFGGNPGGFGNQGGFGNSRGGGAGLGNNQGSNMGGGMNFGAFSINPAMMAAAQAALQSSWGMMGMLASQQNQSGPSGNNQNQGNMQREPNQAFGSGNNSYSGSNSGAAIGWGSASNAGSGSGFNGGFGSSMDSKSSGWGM
Test: RNA Bind-n-Seq with designed 260-mer pool; 25 mM Tris-HCl, 150 mM KCl, 3 mM MgCl2, BSA (printed 500 mg/mL), 20 units/mL SUPERase IN; pH not stated; 500 nM RNA pool, 1 h, 4 C; TDP-43 5, 50, 500 nM; high values mean tight binding
Details: protein: recombinant; tags: SBP (GST cleaved off with PreScission; pGEX-GST-SBP)
Whole data set: some 9,900 sequences, median “r (bound/input frequency ratio)” near 0.7, cut for the highest 2% near 6.5. Many of the other results were omitted from the sample, so the highest values are more common in it than they were.
Listed next: entries and their corresponding binding signal.
measured_attribute: binding signal

binder	measured_attribute	recorded_value
ENSMUSG00000061578.1471|Ksr2|12:16 (ssRNA) RNA: GGGAGUUCUACAGUCCGACGAUCGCUUCGAUAUCCGCAUGCUAUGGAUGGAUAGCAUACUGAAUAAAUGGAUGGAUGGAUGGAUUGAUUUGUGAAUGAAUGGAUGAAUGGAUGGGUAGGUGGGUGGAUGCAUAGGCAAGUAGAUGAAUGAAUAUGUGGGUAGAAGGGUGAGUGGGUGGAUGAAUGGAUGGAUAGGUUGGUAGGUUAAUGUAUUCGUGGAUGGGUGAAUGGAUGGAUGGAUAGAUAGAUGGGAAGGUGGAUGGACAGAUGGAUGGAUGGAUAGAUAGAUGGACAGGUGGUUGGUCUCUUGCGGUCGCACUAGUGUGGAAUUCUCGGGUGUCAAGG	binding signal	8.75 R (bound/input frequency ratio)
ENSMUSG00000061578.1474|Ksr2 (ssRNA) RNA: GGGAGUUCUACAGUCCGACGAUCGCUUCGAUAUCCGCAUGCUAAAUAAAUGGAUGGAUGGAUGGAUUGAUUUGUGAAUGAAUGGAUGAAUGGAUGGGUAGGUGGGUGGAUGCAUAGGCAAGUAGAUGAAUGAAUAUGUGGGUAGAAGGGUGAGUGGGUGGAUGAAUGGAUGGAUAGGUUGGUAGGUUAAUGUAUUCGUGGAUGGGUGAAUGGAUGGAUGGAUAGAUAGAUGGGAAGGUGGAUGGACAGAUGGAUGGAUGGAUAGAUAGAUGGACAGGUGGUUGGUGGAUAAAUGAGUGAAUGACUCUUGCGGUCGCACUAGUGUGGAAUUCUCGGGUGUCAAGG	binding signal	3.43 R (bound/input frequency ratio)
ENSMUSG00000043670.112|Diras1 (ssRNA) RNA: GGGAGUUCUACAGUCCGACGAUCGCUUCGAUAUCCGCAUGCUACCGUGACCUCUGACCUGUGGCCUUCCCUGGGUCCAGAACACCCCUGUCCUCUCCUGUCUGCACACCAGGGUGGAUGGGCCCGAGGGCUGGGCCUCAGGCACCAGGCAAUAAACACAGGGCCUGCAGCAAUGCCCUGGCCACCCCGAGUACCACCUCUGGAAUAGCAGACGCCCACAGCACAAGCCCAGGACUGUCCCUUCAGGGGAGGCACACUGGAACCCUGAACUUGGAGUGUGGAGUGGCUGCCUGGACACUGCCCACUCUUGCGGUCGCACUAGUGUGGAAUUCUCGGGUGUCAAGG	binding signal	0.898 R (bound/input frequency ratio)
ENSMUSG00000034801.54|Sos2 (ssRNA) RNA: GGGAGUUCUACAGUCCGACGAUCGCUUCGAUAUCCGCAUGCUAUCAAUGACCUUGGCCAUAUGUAGUCAUUGACACUGGAAUAGUAUUUGUAAAGGUUUUUAAUUUAUUCAAAAAGACAUAGUAUUUUAGUACUUUUUACAGAAAUGCUACUGAUUAAAUAAGCUCUUAAGAAUUAGUAAACUUGUUGGAUGGCAGUGGCCCACAGCUGUAAUCCCAGCACCCUGGUUGCAGGGGCAGGUGGGCUUCAGGGUUUGAGAGCAGCCUGGUCUACAGAGCAAGUCCCAGGACAGCCAGGGCUACACCUCUUGCGGUCGCACUAGUGUGGAAUUCUCGGGUGUCAAGG	binding signal	0.356 R (bound/input frequency ratio)
